All figures here come from patent US12428394B2.

# Kinase activity @ 500 nM (%) JAK2 annotations
- Experimental Target: JAK2 (Homo sapiens, UniProt O60674)
- Construct: purchased Eurofins
- Sequence (O60674 whole entry): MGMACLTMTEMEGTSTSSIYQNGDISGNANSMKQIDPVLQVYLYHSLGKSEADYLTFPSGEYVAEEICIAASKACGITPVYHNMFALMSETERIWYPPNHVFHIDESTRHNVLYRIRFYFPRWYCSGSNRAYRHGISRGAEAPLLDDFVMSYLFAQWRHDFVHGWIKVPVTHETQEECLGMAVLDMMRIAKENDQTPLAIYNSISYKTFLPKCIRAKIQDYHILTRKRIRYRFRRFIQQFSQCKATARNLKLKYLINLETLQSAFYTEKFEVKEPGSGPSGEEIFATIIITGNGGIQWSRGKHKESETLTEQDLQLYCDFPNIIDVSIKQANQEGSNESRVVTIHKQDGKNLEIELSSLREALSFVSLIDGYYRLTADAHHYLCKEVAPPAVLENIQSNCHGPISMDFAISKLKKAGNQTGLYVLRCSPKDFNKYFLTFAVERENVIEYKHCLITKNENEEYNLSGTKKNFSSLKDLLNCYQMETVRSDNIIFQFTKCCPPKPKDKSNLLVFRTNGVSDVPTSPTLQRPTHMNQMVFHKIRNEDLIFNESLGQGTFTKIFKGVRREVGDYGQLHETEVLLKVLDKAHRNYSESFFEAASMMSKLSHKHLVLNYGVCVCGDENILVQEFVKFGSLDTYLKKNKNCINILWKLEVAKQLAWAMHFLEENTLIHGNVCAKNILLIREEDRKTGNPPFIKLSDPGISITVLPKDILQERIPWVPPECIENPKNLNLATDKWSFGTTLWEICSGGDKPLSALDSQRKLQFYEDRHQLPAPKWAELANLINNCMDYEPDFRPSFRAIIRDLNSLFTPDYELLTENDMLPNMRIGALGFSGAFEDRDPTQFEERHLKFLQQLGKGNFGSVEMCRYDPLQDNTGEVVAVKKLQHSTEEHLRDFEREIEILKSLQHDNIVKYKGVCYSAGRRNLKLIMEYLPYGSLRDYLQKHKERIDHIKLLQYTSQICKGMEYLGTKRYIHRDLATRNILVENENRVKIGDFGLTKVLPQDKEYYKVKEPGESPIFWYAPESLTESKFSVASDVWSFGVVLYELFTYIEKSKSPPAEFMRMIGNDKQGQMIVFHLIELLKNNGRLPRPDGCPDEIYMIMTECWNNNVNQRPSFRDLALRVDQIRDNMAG
- Protocol Notes: In vitro kinase activity experiment, JAK2
- Format: biochemical
- Measurement Parameters: inhibition rate of enzyme at 500 nM; measured by Eurofins

Cpd Smiles	Experimental Target	Kinase activity @ 500 nM (%) JAK2
CC(C)n1cc(-c2nc(Nc3ccc(N4CCN(C)CC4)cc3F)ncc2F)cn1	JAK2 (Homo sapiens, UniProt O60674)	49%
CCCCCCN(C)C1CCN(c2ccc(Nc3ncc(C)c(-c4cnn(C(C)C)c4)n3)cc2F)CC1	JAK2 (Homo sapiens, UniProt O60674)	95%
Cc1cnc(Nc2ccc(NS(=O)(=O)c3ccc4c(c3)CC(=O)N4)c(F)c2)nc1-c1cnn(C(C)C)c1	JAK2 (Homo sapiens, UniProt O60674)	66%
CCCCn1cc(-c2nc(Nc3ccc(N4CCN(C)CC4)c(F)c3)ncc2F)cn1	JAK2 (Homo sapiens, UniProt O60674)	37%
CCS(=O)(=O)c1nn(C(C)C)cc1-c1nc(Nc2ccc(N3CCC(N(C)CCO)CC3)c(F)c2)ncc1C	JAK2 (Homo sapiens, UniProt O60674)	104%
CCN1CC2(CCN(c3ccc(Nc4ncc(C)c(-c5cnn(C(C)C)c5)n4)cc3F)CC2)C1	JAK2 (Homo sapiens, UniProt O60674)	91%
COc1cc(Nc2ncc(C)c(-c3cnn(C(C)C)c3)n2)ccc1N1CCC(N(C)C)CC1	JAK2 (Homo sapiens, UniProt O60674)	94%
CC(C)n1cc(-c2nc(Nc3ccc(N4CCN(C5CCN(C)CC5)CC4)c(F)c3)ncc2F)cn1	JAK2 (Homo sapiens, UniProt O60674)	90%
CC(C)N1CCN(Cc2ccc(Nc3ncc(F)c(-c4ccc(CN5CCc6ccccc65)o4)n3)nc2)CC1	JAK2 (Homo sapiens, UniProt O60674)	45%
Cc1cnc(Nc2ccc(NC(=O)[C@H]3C[C@H](F)CN3)c(F)c2)nc1-c1cnn(C(C)C)c1	JAK2 (Homo sapiens, UniProt O60674)	99%
Cc1cnc(Nc2ccc(CNC(=O)CCCl)cc2)nc1-c1cnn(C(C)C)c1	JAK2 (Homo sapiens, UniProt O60674)	39%
Cc1cnc(Nc2ccc(CNC(=O)/C=C/CN(C)C)cc2)nc1-c1cnn(C(C)C)c1	JAK2 (Homo sapiens, UniProt O60674)	44%
CCCn1cc(-c2nc(Nc3ccc(N4CCN(C)CC4)c(F)c3)ncc2F)cn1	JAK2 (Homo sapiens, UniProt O60674)	38%
Cc1nn(C(C)C)cc1-c1nc(Nc2ccc(N3CCN(C)CC3)c(F)c2)ncc1F	JAK2 (Homo sapiens, UniProt O60674)	93%
